- System: Fusarium solani
- METHOD SUMMARY: MIC by micro-liquid dilution method (Alamar Blue assay), Fusarium solani
- Assay type: cell-based
- Parameters: unit not given here
- SETTINGS: 10 clinical strains; 35° C., 72 hours; MIC = minimum concentration with IC not less than 80%
Structures can show the parent of a compound that is named as a salt.
Exercise: for every item that follows, state its recorded MIC, F. solani (10), lower line of each agent (range).

Examples from the recorded data:
// MIC, F. solani (10), lower line of each agent (range) lookup, compound = C[C@@H]1[C@H](O)[C@@H](C)/C=C/C=C/C=C/C=C/C=C/C=C/C=C/[C@H](O[C@@H]2O[C@H](C)[C@@H](O)[C@H](N)[C@@H]2O)C[C@@H]2O[C@](O)(C[C@@H](O)C[C@@H](O)[C@H](O)CC[C@@H](O)C[C@@H](O)CC(=O)O[C@H]1C)C[C@H](O)[C@H]2C(=O)O [AMB, Amphotericin B] , result: 2-4

// MIC, F. solani (10), lower line of each agent (range) lookup, compound = N#C/C(=C1/SCC(c2ccccc2Cl)S1)n1ccnc1 (centres unmarked) [lanoconazole] , result: 0.063-0.25

// MIC, F. solani (10), lower line of each agent (range) lookup, compound = CCC(C)(C)c1ccc(CC(C)CN2C[C@@H](C)O[C@@H](C)C2)cc1 (some centres unmarked) [AMO, Amorolfine hydrochloride] , result: >4

// MIC, F. solani (10), lower line of each agent (range) lookup, compound = CCC(C)n1ncn(-c2ccc(N3CCN(c4ccc(OCC5COC(Cn6cncn6)(c6ccc(Cl)cc6Cl)O5)cc4)CC3)cc2)c1=O (centres unmarked) [ITZ, Itraconazole] , result: >4

// MIC, F. solani (10), lower line of each agent (range) lookup, compound = Clc1ccccc1C(c1ccccc1)(c1ccccc1)n1ccnc1 [CTZ, Clotrimazole] , result: >4

// MIC, F. solani (10), lower line of each agent (range) lookup, compound = N#C/C(=C1/SC[C@@H](c2ccc(Cl)cc2Cl)S1)n1ccnc1 [luliconazole] , result: 0.016-0.063

Please look at the items below and tell me MIC, F. solani (10), lower line of each agent (range) for each one, in order.
1. OC(Cn1cncn1)(Cn1cncn1)c1ccc(F)cc1F [FCZ, Fluconazole]
2. c1ccc(-c2ccc(C(c3ccccc3)n3ccnc3)cc2)cc1 (centres unmarked) [BFZ, Bifonazole]

1: >4; 2: >4
